# TESTED SYSTEM: recombinant PRL-3 (Homo sapiens)
# Construct: 6xHis (N, cleaved yes); made in house; host or cells: E. coli One Shot BL21 Star
# Sequence (O75365 whole entry): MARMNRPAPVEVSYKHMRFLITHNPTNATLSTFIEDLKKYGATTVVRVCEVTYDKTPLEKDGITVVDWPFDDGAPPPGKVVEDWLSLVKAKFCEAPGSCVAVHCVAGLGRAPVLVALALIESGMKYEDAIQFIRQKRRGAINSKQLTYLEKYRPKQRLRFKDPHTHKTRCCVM
# MEASUREMENT NOTES: In vitro phosphatase assay (DiFMUP hydrolysis), PRL-3; further: test concentration or dose not given here
# Format: biochemical
RECORDED ENDPOINT: % Phosphatase Activity (compared to DMSO) PRL-3 (%)
API: value field is a number in %; no unit string.

Known value: recombinant PRL-3 (Homo sapiens) % Phosphatase Activity (compared to DMSO) PRL-3 of the compound c1ccc(C2CN3CCSC3=N2)cc1 (single isomer, unassigned; (-)) [(-)-Tetramisole] equals 99

Known value: recombinant PRL-3 (Homo sapiens) % Phosphatase Activity (compared to DMSO) PRL-3 of the compound O=C(O)c1cccnc1 equals 91

Known value: recombinant PRL-3 (Homo sapiens) % Phosphatase Activity (compared to DMSO) PRL-3 of the compound Cc1cccc([C@H](C)c2c[nH]cn2)c1C.Cl [Dexmedetomidine HCl (Precedex)] equals 90

Known value: recombinant PRL-3 (Homo sapiens) % Phosphatase Activity (compared to DMSO) PRL-3 of the compound NCCCC(O)(P(=O)(O)O)P(=O)(O)O [Alendronate] equals 79

Known value: recombinant PRL-3 (Homo sapiens) % Phosphatase Activity (compared to DMSO) PRL-3 of the compound CN1CCC[C@H]1c1cccnc1.O=C(O)C(O)C(O)C(=O)O.O=C(O)C(O)C(O)C(=O)O [Nicotine Ditartrate] equals 96

* * *

Provide the reported % Phosphatase Activity (compared to DMSO) PRL-2 of each item.
# TESTED SYSTEM: recombinant PRL-2 (Homo sapiens, UniProt Q12974)
# Construct: 6xHis (N, cleaved yes); made in house; host or cells: E. coli One Shot BL21 Star
# Sequence (Q12974 1-167): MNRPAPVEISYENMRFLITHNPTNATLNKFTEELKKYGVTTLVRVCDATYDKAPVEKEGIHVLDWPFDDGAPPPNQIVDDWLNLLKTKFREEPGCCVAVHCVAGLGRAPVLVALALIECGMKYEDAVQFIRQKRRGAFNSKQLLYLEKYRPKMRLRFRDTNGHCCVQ
# MEASUREMENT NOTES: In vitro phosphatase assay (DiFMUP hydrolysis), PRL-2
# Type: biochemical
# CONDITIONS USED: FDA-approved drug screen; compared to DMSO
API: value field is a number in %; no unit string.

response.value for COc1cccc2c1C(=O)c1c(O)c3c(c(O)c1C2=O)C[C@@](O)(C(=O)CO)C[C@@H]3O[C@H]1C[C@H](N)[C@H](O)[C@H](C)O1 [Doxorubicin (Adriamycin)] (field: % Phosphatase Activity (compared to DMSO) PRL-2) = 74

response.value for C[C@H]1COc2c(N3CCN(C)CC3)c(F)cc3c(=O)c(C(=O)O)cn1c23 [Levofloxacin] (field: % Phosphatase Activity (compared to DMSO) PRL-2) = 314

response.value for Clc1ccc(C(c2ccccc2Cl)C(Cl)Cl)cc1 (stereo not shown) [Mitotane] (field: % Phosphatase Activity (compared to DMSO) PRL-2) = 93

response.value for CC(C)Oc1ccc(-c2nc(-c3cccc4c3CC[C@@H]4NCCO)no2)cc1C#N [Ozanimod (RPC1063)] (field: % Phosphatase Activity (compared to DMSO) PRL-2) = 101

* * *

# TESTED SYSTEM: recombinant PRL-1 (Homo sapiens, UniProt Q93096)
# Construct: 6xHis (N, cleaved yes); made in house; host or cells: E. coli One Shot BL21 Star
# Sequence (Q93096 whole entry): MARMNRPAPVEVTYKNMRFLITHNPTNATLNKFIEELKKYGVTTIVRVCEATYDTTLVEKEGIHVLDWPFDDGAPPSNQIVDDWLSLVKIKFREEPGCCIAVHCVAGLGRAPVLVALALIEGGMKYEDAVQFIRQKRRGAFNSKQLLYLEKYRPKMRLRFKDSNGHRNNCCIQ
# MEASUREMENT NOTES: In vitro phosphatase assay (DiFMUP hydrolysis), PRL-1; further: test concentration or dose not given here
# Format: biochemical
# CONDITIONS USED: FDA-approved drug screen; compared to DMSO
RECORDED ENDPOINT: % Phosphatase Activity (compared to DMSO) PRL-1 (%)
API: value field is a number in %; no unit string.

Known value: recombinant PRL-1 (Homo sapiens, UniProt Q93096) % Phosphatase Activity (compared to DMSO) PRL-1 of the compound O=[N+]([O-])C(Br)(CO)CO [Bronopol] equals 103

Known value: recombinant PRL-1 (Homo sapiens, UniProt Q93096) % Phosphatase Activity (compared to DMSO) PRL-1 of the compound Oc1c(Cl)cc(Cl)c2cccnc12 [Chloroxine] equals 90

Known value: recombinant PRL-1 (Homo sapiens, UniProt Q93096) % Phosphatase Activity (compared to DMSO) PRL-1 of the compound C[C@H](N)[C@H](O)c1cccc(O)c1 [Metaraminol Bitartrate] equals 112

Known value: recombinant PRL-1 (Homo sapiens, UniProt Q93096) % Phosphatase Activity (compared to DMSO) PRL-1 of the compound COc1ccc2c(c1)c(CC(=O)O)c(C)n2C(=O)c1ccc(Cl)cc1 [Indomethacin] equals 96

Known value: recombinant PRL-1 (Homo sapiens, UniProt Q93096) % Phosphatase Activity (compared to DMSO) PRL-1 of the compound Cl.Cn1c(CCCC(=O)O)nc2cc(N(CCCl)CCCl)ccc21 [Bendamustine HCl] equals 122

* * *

Provide the reported % Phosphatase Activity (compared to DMSO) PRL-2 of each item.
# TESTED SYSTEM: recombinant PRL-2 (Homo sapiens)
# Construct: 6xHis (N, cleaved yes); made in house; host or cells: E. coli One Shot BL21 Star
# MEASUREMENT NOTES: In vitro phosphatase assay (DiFMUP hydrolysis), PRL-2
# Format: biochemical
# CONDITIONS USED: FDA-approved drug screen; activity compared to DMSO
Where a name gives a salt, the structure may show the parent alone.
API: value field is a number in %; no unit string.

response.value for COc1cc(O)c(C(=O)c2ccccc2)cc1S(=O)(=O)O (field: % Phosphatase Activity (compared to DMSO) PRL-2) = 95

response.value for CN(C/C=C/C#CC(C)(C)C)Cc1cccc2ccccc12 [Terbinafine HCl] (field: % Phosphatase Activity (compared to DMSO) PRL-2) = 108

response.value for O=c1sn(-c2cccc3ccccc23)c(=O)n1Cc1ccccc1 (field: % Phosphatase Activity (compared to DMSO) PRL-2) = 120

* * *

# TESTED SYSTEM: recombinant PRL-1 (Homo sapiens)
# Construct: 6xHis (N, cleaved yes); made in house; host or cells: E. coli One Shot BL21 Star
# MEASUREMENT NOTES: In vitro phosphatase assay (DiFMUP hydrolysis), PRL-1; further: test concentration or dose not given here
# Type: biochemical
# CONDITIONS USED: FDA-approved drug screen; compared to DMSO
RECORDED ENDPOINT: % Phosphatase Activity (compared to DMSO) PRL-1 (%)
API: value field is a number in %; no unit string.

response.value for O=C1C(CC[S+]([O-])c2ccccc2)C(=O)N(c2ccccc2)N1c1ccccc1 (racemic) [(+/-)-Sulfinpyrazone] (field: % Phosphatase Activity (compared to DMSO) PRL-1) = 88

response.value for CN(C)CC(c1ccc(O)cc1)C1(O)CCCCC1 (stereo not shown) [Desvenlafaxine] (field: % Phosphatase Activity (compared to DMSO) PRL-1) = 95

response.value for Cc1ccc(-c2cc(C(F)(F)F)nn2-c2ccc(S(N)(=O)=O)cc2)cc1 (field: % Phosphatase Activity (compared to DMSO) PRL-1) = 92

response.value for CN(C)CCC(c1ccc(Br)cc1)c1ccccn1.O=C(O)/C=C\C(=O)O (stereo not shown) [Brompheniramine hydrogen maleate] (field: % Phosphatase Activity (compared to DMSO) PRL-1) = 108

* * *

# TESTED SYSTEM: recombinant PRL-2 (Homo sapiens, UniProt Q12974)
# Construct: 6xHis (N, cleaved yes); made in house; host or cells: E. coli One Shot BL21 Star
# MEASUREMENT NOTES: In vitro phosphatase assay (DiFMUP hydrolysis), PRL-2;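 further: PRL-2 activity read as DiFMUP hydrolysis after 20 min at room temperature with drug, enzyme first pre-reduced at 4 °C for 20 min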
# Type: biochemical
# CONDITIONS USED: FDA-approved drug screen; compared to DMSO
Structures can show the parent of a compound that is named as a salt.
RECORDED ENDPOINT: % Phosphatase Activity (compared to DMSO) PRL-2 (%)
API: value field is a number in %; no unit string.

response.value for CN1C2CCCC1CC(NC(=O)c1nn(C)c3ccccc13)C2 (centres unmarked) [Granisetron HCl] (field: % Phosphatase Activity (compared to DMSO) PRL-2) = 74

response.value for CO/N=C(/C(=O)N[C@@H]1C(=O)N2C(C(=O)[O-])=C(CSc3nc(=O)c([O-])nn3C)CS[C@H]12)c1csc(N)n1.O.O.O.[Na+].[Na+] [Ceftriaxone Sodium Trihydrate] (field: % Phosphatase Activity (compared to DMSO) PRL-2) = 115

response.value for CN(CCOc1ccc(CC2SC(=O)NC2=O)cc1)c1ccccn1.Cl (centres unmarked) [Rosiglitazone HCl] (field: % Phosphatase Activity (compared to DMSO) PRL-2) = 116

response.value for Cc1ccc(N(CC2=NCCN2)c2cccc(O)c2)cc1 [Phentolamine Mesylate] (field: % Phosphatase Activity (compared to DMSO) PRL-2) = 117

response.value for CNC(=C[N+](=O)[O-])NCCSCc1ccc(CN(C)C)o1 [Ranitidine] (field: % Phosphatase Activity (compared to DMSO) PRL-2) = 102

response.value for COc1cc2c(Oc3ccc4[nH]c(C)cc4c3F)ncnc2cc1OCCCN1CCCC1 [Cediranib (AZD2171)] (field: % Phosphatase Activity (compared to DMSO) PRL-2) = 105

response.value for N#Cc1ccc(C(c2ccc(C#N)cc2)n2cncn2)cc1 [Letrozole] (field: % Phosphatase Activity (compared to DMSO) PRL-2) = 85

response.value for O=C(O)CSCC(=O)NC1CCSC1=O (centres unmarked) [Erdosteine] (field: % Phosphatase Activity (compared to DMSO) PRL-2) = 89

response.value for Cc1cc(C(C)(C)C)c(O)c(C)c1CC1=NCCN1 [Oxymetazoline hydrochloride] (field: % Phosphatase Activity (compared to DMSO) PRL-2) = 118

response.value for Nc1ccc2cc3ccc(N)cc3nc2c1 [Proflavine Hemisulfate] (field: % Phosphatase Activity (compared to DMSO) PRL-2) = 61

response.value for CC(C[N+](C)(C)C)OC(N)=O (centres unmarked) [Bethanechol chloride] (field: % Phosphatase Activity (compared to DMSO) PRL-2) = 119

response.value for CN(CCOc1ccc(NS(C)(=O)=O)cc1)CCc1ccc(NS(C)(=O)=O)cc1 [Dofetilide] (field: % Phosphatase Activity (compared to DMSO) PRL-2) = 88

response.value for COc1ccccc1OCC(O)CN1CCN(CC(=O)Nc2c(C)cccc2C)CC1.Cl.Cl (centres unmarked) [Ranolazine 2HCl] (field: % Phosphatase Activity (compared to DMSO) PRL-2) = 99

response.value for CC(C)=CCC/C(C)=C/CC/C(C)=C/CSc1ccccc1C(=O)O [Salirasib] (field: % Phosphatase Activity (compared to DMSO) PRL-2) = 6

response.value for C=CC1=C(C(=O)O)N2C(=O)[C@@H](NC(=O)/C(=N\O)c3csc(N)n3)[C@H]2SC1 [Cefdinir] (field: % Phosphatase Activity (compared to DMSO) PRL-2) = 110

response.value for C=C1CC[C@@]2(O)[C@H]3Cc4ccc(O)c5c4[C@@]2(CCN3CC2CC2)[C@H]1O5 [Nalmefene HCl] (field: % Phosphatase Activity (compared to DMSO) PRL-2) = 102

response.value for CNC(=O)[C@H](Cc1ccccc1)NC(=O)[C@H](CC(C)C)[C@H](CSc1cccs1)C(=O)NO [Batimastat (BB-94)] (field: % Phosphatase Activity (compared to DMSO) PRL-2) = 79

response.value for CN(C)CCC(c1ccccc1)c1ccccn1 (centres unmarked) [Pheniramine Maleate] (field: % Phosphatase Activity (compared to DMSO) PRL-2) = 104

response.value for O=C(O)CCCC[C@@H]1SC[C@@H]2NC(=O)N[C@@H]21 [Biotin (Vitamin B7)] (field: % Phosphatase Activity (compared to DMSO) PRL-2) = 101

response.value for CC(C)(CO)[C@@H](O)C(=O)NCCCO [D panthenol] (field: % Phosphatase Activity (compared to DMSO) PRL-2) = 80

response.value for CCN[C@@H]1C[C@H](N)[C@@H](O[C@H]2OC(CN)=CC[C@H]2N)[C@H](O)[C@H]1O[C@H]1OC[C@](C)(O)[C@H](NC)[C@H]1O.CCN[C@@H]1C[C@H](N)[C@@H](O[C@H]2OC(CN)=CC[C@H]2N)[C@H](O)[C@H]1O[C@H]1OC[C@](C)(O)[C@H](NC)[C@H]1O.O=S(=O)(O)O.O=S(=O)(O)O.O=S(=O)(O)O.O=S(=O)(O)O.O=S(=O)(O)O [Netilmicin Sulfate] (field: % Phosphatase Activity (compared to DMSO) PRL-2) = 110

response.value for CCC(=O)O[C@]1(C(=O)CCl)[C@@H](C)C[C@H]2[C@@H]3C[C@H](F)C4=CC(=O)C=C[C@]4(C)[C@@]3(F)[C@@H](O)C[C@@]21C [Halobetasol Propionate] (field: % Phosphatase Activity (compared to DMSO) PRL-2) = 88

response.value for CCC(C)(C)c1ccc(CC(C)CN2C[C@@H](C)O[C@@H](C)C2)cc1 (some centres unmarked) [Amorolfine HCl] (field: % Phosphatase Activity (compared to DMSO) PRL-2) = 94

response.value for O=C(O)C[C@H](O)C[C@H](O)/C=C/c1c(C2CC2)nc2ccccc2c1-c1ccc(F)cc1 [Pitavastatin Calcium] (field: % Phosphatase Activity (compared to DMSO) PRL-2) = 88

response.value for CCOC(=O)[C@H](CCc1ccccc1)N[C@@H](C)C(=O)N1Cc2cc(OC)c(OC)cc2C[C@H]1C(=O)O [Moexipril HCl] (field: % Phosphatase Activity (compared to DMSO) PRL-2) = 98

response.value for NC[C@H](CC(=O)O)c1ccc(Cl)cc1 [(R)-baclofen] (field: % Phosphatase Activity (compared to DMSO) PRL-2) = 121

response.value for Nc1nc(N)nc(-c2cc(Cl)ccc2Cl)n1 [Irsogladine] (field: % Phosphatase Activity (compared to DMSO) PRL-2) = 106

response.value for CCC1(c2cnc[nH]2)Cc2ccccc2C1.Cl [Atipamezole hydrochloride] (field: % Phosphatase Activity (compared to DMSO) PRL-2) = 106

response.value for c1ccc(CN(CC2=NCCN2)c2ccccc2)cc1 [Antazoline HCl] (field: % Phosphatase Activity (compared to DMSO) PRL-2) = 104

response.value for COC(=O)C1=C(C)NC(C)=C(C(=O)OC(C)(C)CN(C)CCC(c2ccccc2)c2ccccc2)C1c1cccc([N+](=O)[O-])c1.Cl (centres unmarked) [Lercanidipine (hydrochloride)] (field: % Phosphatase Activity (compared to DMSO) PRL-2) = 101

response.value for CCn1c(=O)c(-c2cc[nH]n2)cc2c(C)nc(N)nc21 [SAR245409 (XL765)] (field: % Phosphatase Activity (compared to DMSO) PRL-2) = 74

response.value for CCOc1ccc(NC(=O)CC(C)O)cc1 (centres unmarked) [Bucetin] (field: % Phosphatase Activity (compared to DMSO) PRL-2) = 108
